- SYSTEM_NAME: C5aR2 (Homo sapiens, UniProt Q9P296)
- Construct: human C5aR2-Venus
- Sequence (Q9P296 whole entry): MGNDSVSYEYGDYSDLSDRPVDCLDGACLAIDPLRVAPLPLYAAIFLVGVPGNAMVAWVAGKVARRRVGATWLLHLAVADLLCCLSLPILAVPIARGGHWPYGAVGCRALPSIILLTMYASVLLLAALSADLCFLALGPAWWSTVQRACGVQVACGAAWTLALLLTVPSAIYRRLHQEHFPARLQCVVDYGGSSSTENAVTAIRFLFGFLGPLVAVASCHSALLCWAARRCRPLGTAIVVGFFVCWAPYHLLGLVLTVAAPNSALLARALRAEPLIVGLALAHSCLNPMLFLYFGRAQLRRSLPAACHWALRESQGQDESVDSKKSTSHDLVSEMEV
- EXPERIMENTAL_DETAILS: BRET β-arrestin […] recruitment to C5aR2 in transfected HEK293 cells (partial agonist)
PROPERTY_NAME: EC50 (µM)
Form entry: value (µM) — number only.

Task: What measured EC50 goes with N=C(N)NCCC[C@H](NC(=O)COCC(c1ccccc1)c1ccccc1)C(=O)O ?
Output: 16.1

Sourced from paper PMC7859635
